Here, each record is paired with measured EC50 data.
- System: SARS-CoV-2 strain Slovakia/SK-BMC5/2020
- EXPERIMENTAL_PROTOCOL: microbe, parasite or virus in culture
- Type: cell-based
- COND: Severe acute respiratory syndrome coronavirus 2, Vero C1008, 72 h, read-out: EC50 Plaque reduction assay
# value in µM; strip the unit string

Past entries and their recorded results:
O=C1/C(=C/c2ccc([N+](=O)[O-])cc2)CNC/C1=C\c1ccc([N+](=O)[O-])cc1 [RA-9, reference compound] : 12.1
NCCCNC(=O)OC1C/C(=C\c2ccc([N+](=O)[O-])cc2)C(O)/C(=C/c2ccc([N+](=O)[O-])cc2)C1 (centres unmarked) [Compound T122] : 17
N#CSc1cc(SC#N)c(N)nc1N [Compound C4, PR-619, reference compound] : 9

Then this compound:
Quickly give me recorded EC50 for CC(C)C[C@H](NC(=O)OC1C/C(=C\c2ccc([N+](=O)[O-])cc2)C(=O)/C(=C/c2ccc([N+](=O)[O-])cc2)C1)C(N)=O (some centres unmarked) [Compound T120]
3.4

* * *

In this section we review reported IC50 values for a set of compounds.
- SYSTEM_TESTED: SARS-CoV-2 PL^pro (Severe acute respiratory syndrome coronavirus 2, UniProt P0DTD1)
- EXPERIMENTAL_PROTOCOL: biochemical
- Format: biochemical
- COND: protease activity; 1 h at 37 °C; 1 mM DTT; read-out: IC50 Enzyme assay PA PL^pro

N[C@@H](Cc1ccccc1)C(=O)N1C/C(=C\c2ccc(Cl)c(Cl)c2)C(=O)/C(=C/c2ccc(Cl)c(Cl)c2)C1 [RA-190, reference compound] : > 100 µM

Look up IC50 of N#CSc1cc(SC#N)c(N)nc1N [Compound C4, PR-619, reference compound] and report it.
0.1 µM

Given the compound COc1cc(/C=C2\CC(OC(=O)NCCCN)C/C(=C\c3ccc(O)c(OC)c3)C2=O)ccc1O (stereo not drawn) [Compound T123] , write its reported IC50.
60 µM

* * *

- SYSTEM_TESTED: SARS-CoV-2 M^pro (Severe acute respiratory syndrome coronavirus 2)
- EXPERIMENTAL_PROTOCOL: biochemical
- COND: protease activity; 4 h at room temperature; 1 mM DTT; read-out: IC50 Enzyme assay PA M^pro
VALUE_TYPE: IC50

// known answers, use as guide
COc1cc(/C=C2\CC(OC(=O)NCCCN)C/C(=C\c3ccc(O)c(OC)c3)C2=O)ccc1O (stereo not drawn) : > 100 µM
N#CSc1cc(SC#N)c(N)nc1N [Compound C4, PR-619, reference compound] : 0.7 µM

Next item in the queue.
Read the entry N[C@@H](Cc1ccccc1)C(=O)N1C/C(=C\c2ccc(Cl)c(Cl)c2)C(=O)/C(=C/c2ccc(Cl)c(Cl)c2)C1 [RA-190, reference compound] and write its reported IC50.
> 100 µM

* * *

- Tested on: SARS-CoV-2 strain Slovakia/SK-BMC5/2020
- EXPERIMENTAL_PROTOCOL: microbe, parasite or virus in culture
- Format: cell-based
- COND: Severe acute respiratory syndrome coronavirus 2, Vero C1008, 72 h, read-out: EC50 Plaque reduction assay
Overview of recorded EC50 for various compounds
Entry rule: numbers only, all in µM.

NCCCNC(=O)OC1C/C(=C\c2ccc([N+](=O)[O-])cc2)C(=O)/C(=C/c2ccc([N+](=O)[O-])cc2)C1 (stereo not drawn) [Compound T98] : 6.7
NC(=O)[C@H](Cc1ccccc1)NC(=O)OC1C/C(=C\c2ccc([N+](=O)[O-])cc2)C(=O)/C(=C/c2ccc([N+](=O)[O-])cc2)C1 (stereo partly drawn) [Compound T121] : 8.4

Okay, next one:
Please indicate EC50 recorded for CC(C)C[C@H](N)C(=O)NCCCNC(=O)OC1C/C(=C\c2ccc([N+](=O)[O-])cc2)C(=O)/C(=C/c2ccc([N+](=O)[O-])cc2)C1 (stereo partly drawn) [Compound T124]
15.9

The reported measurements were obtained from paper PMC10791089.
